Every entry's value here was drawn from paper PMC5540273.

- Tested on: IKK-epsilon
- Construct: gene IKBKE
- testSettings: concentration: 1 μM, replicates: in singlicate; n = 1;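 note: KINOMEscan kinase panel screen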
reportedMetric: %Inh (%)
Give the number; % is assumed, so skip it.

IKK-epsilon %Inh of Cn1cc(-c2cnc(N)c3c(-c4ccc5c(c4)CCN5C(=O)Cc4ccccc4)csc23)cn1 [GSK2593074] is 59

IKK-epsilon %Inh of O=C(Nc1c(F)cccc1F)c1cc(C(=O)c2ccccc2F)c[nH]1 [GSK1326180] is 0

====

- System: PIK4CB
- Construct: gene PI4KB
- testSettings: concentration: 1 μM, replicates: in singlicate; n = 1
reportedMetric: %Inh (%)
Give the number; % is assumed, so skip it.

Worked set:
COC(=O)Nc1nc2cc(Oc3ccc(NC(=O)Nc4cccc(SC)c4)cc3)ccc2[nH]1.Cl [GW697999] = 0
CC(C)c1nc(-c2cccc(NS(=O)(=O)c3c(F)cccc3F)c2)c(-c2ccnc(Nc3ccc(N4CCOCC4)nc3)n2)s1.Cl [GSK1723980] = 0
Nc1cccc(-c2ccc3c(N)n[nH]c3c2)c1 [GSK2193613] = 0
O=C(Nc1n[nH]c2cc(-c3cccs3)ccc12)C1CC1 [SB-731284] = 0
CN(c1ccc2c(c1)nc(NCc1ccccc1)n2C)c1ccnc(Nc2ccc(CS(C)(=O)=O)cc2)n1.Cl [GW811603] = 26

Noted for COc1ccc(NC(=O)c2ccoc2)cc1-c1ccc(C(=O)NCC2CC2)cc1 [GW810437] : its %Inh reads 20

Noted for Cc1cc(-c2c(-c3ccc(F)cc3)ncn2CCCN2CCOCC2)nc(N)n1 [SB-222517] : its %Inh reads 46

====

- Test system: FGFR1
- testSettings: concentration: 1 μM, replicates: in singlicate; n = 1
reportedMetric: %Inh (%)
Give the number; % is assumed, so skip it.

NCCC(NC(=O)c1cc(Br)c(-c2ccnc3[nH]ccc23)s1)c1ccccc1.O=C(O)C(F)(F)F.O=C(O)C(F)(F)F (centres unmarked) = 73
CCNc1nccc(-c2c(-c3ccc(F)cc3)ncn2C2CCN(C)CC2)n1 = 0
Cc1nn2c(=O)cc(N3CCO[C@H](C)C3)nc2n1Cc1cccc(Cl)c1Cl = 6

Noted for CN(c1ccc(F)c(NC(=O)c2cccc(OC(C)(C)C#N)c2Cl)c1)c1ccc2nc(NC(=O)C3CC3)sc2n1 : its %Inh reads 48

Noted for Cn1cc(-c2cnc(N)c3c(-c4ccc5c(c4)CCN5C(=O)Cc4ccccc4)csc23)cn1 : its %Inh reads 28

Noted for Fc1cc(Cl)ccc1Nc1ccnc2cc(-c3ccc(CN4CCOCC4)o3)ccc12 : its %Inh reads 40

====

Recorded %Inh by entry
- System: SNRK
- testSettings: concentration: 1 μM, replicates: in singlicate; n = 1
Give the number; % is assumed, so skip it.

Worked set:
CCNC(=O)/C=C/c1n[nH]c2cc(Sc3ccccc3C(=O)NC)ccc12 = 5
Fc1cc(Cl)ccc1Nc1ccnc2cc(-c3ccc(CN4CCOCC4)o3)ccc12 = 7

Noted for Nc1ncc(-c2ccc3nccc(-c4ccncc4)c3c2)cc1S(=O)(=O)N1CCCCC1 : its %Inh reads 0

Noted for COc1cc(Nc2nccc(N3CCC(NC(=O)Nc4ccc5c(c4)OCO5)C3)n2)cc(OC)c1OC (stereo not drawn) : its %Inh reads 0

Noted for CS(=O)(=O)c1cccc(CNc2nc(Nc3ccc4c(c3)CCC(=O)N4)ncc2C(F)(F)F)c1 : its %Inh reads 0

Noted for Cc1ccc(NC(=O)c2ccc(Cl)c(Cl)c2)cc1-c1ccc(C(=O)Nc2ccncc2)cc1 : its %Inh reads 0

====

- Tested on: SRMS
- testSettings: concentration: 1 μM, replicates: in singlicate; n = 1
reportedMetric: %Inh (%)
Give the number; % is assumed, so skip it.

SRMS %Inh of CN(c1ccc(NC(=O)N2CCN(CCCN3CCOCC3)CC2)cc1)c1ccnc(Nc2ccc(CS(C)(=O)=O)cc2)n1.Cl is 0

SRMS %Inh of Nc1ncc(-c2ccc3nccc(-c4ccncc4)c3c2)cc1S(=O)(=O)N1CCCCC1 is 0

SRMS %Inh of COC(=O)Nc1nc2cc(Oc3ccc(NC(=O)Nc4cccc(SC)c4)cc3)ccc2[nH]1.Cl is 0

SRMS %Inh of Cl.Cl.NC(CNC(=O)c1cc(Br)c(-c2ccnc3[nH]ccc23)s1)c1ccccc1 (stereo not drawn) is 0

====

Recorded %Inh by entry
- System: YANK1
- Construct: gene STK32A
- testSettings: concentration: 1 μM, replicates: in singlicate; n = 1
Give the number; % is assumed, so skip it.

Worked set:
CCn1c(-c2nonc2N)nc2c(-c3ccccc3)ncc(OCCCN)c21.O=C(O)C(F)(F)F.O=C(O)C(F)(F)F = 99.4
Fc1cc(Cl)ccc1Nc1ccnc2cc(-c3ccc(CN4CCSCC4)o3)ccc12 = 7
Cc1ccc(NC(=O)c2ccnc(N3CCCCC3)c2)cc1-c1ccc(C(=O)NCC2CC2)cc1 = 0
CC(C)(C)c1ccc(C(=O)Nc2cn3cc(-n4ccnc4)ccc3n2)cc1 = 0
CN(c1ccc2c(c1)nc(NCc1ccccc1)n2C)c1ccnc(Nc2ccc(CS(C)(=O)=O)cc2)n1.Cl = 0

In the following, a different molecule is considered.
Noted for Cc1ccc(NC(=O)c2ccc(Cl)c(Cl)c2)cc1-c1ccc(C(=O)Nc2ccncc2)cc1 : its %Inh reads 12

====

- Tested on: MAP4K4
- testSettings: concentration: 1 μM, replicates: in singlicate; n = 1
Threshold 10%. %Inh below it: Yes. %Inh at it or above: No.

Cl.Cl.NCC(NC(=O)c1cc(-c2cccnc2)c(-c2ccnc3[nH]ccc23)s1)c1ccccc1 (stereo not drawn) = No
COc1ccc(C2=C(Nc3cccc(O)c3)C(=O)NC2=O)cc1 = Yes
CC(C)c1nc(-c2cccc(NS(=O)(=O)c3c(F)cccc3F)c2)c(-c2ccnc(Nc3ccc(N4CCOCC4)nc3)n2)s1.Cl = Yes
CC(=O)Nc1cn2nc(Oc3cccc(NC(=O)c4cccc(C(F)(F)F)c4)c3)ccc2n1 = No
CN(C)CCNS(=O)(=O)c1ccc(-c2ccnc3[nH]ccc23)cc1 = No

Now for another entry.
Request: Confirm or reject: %Inh of O=C(Nc1n[nH]c2cc(-c3cccs3)ccc12)C1CC1 lies strictly below 10%
Result: No

====

Recorded %Inh by entry
- Tested on: IGF1R
- testSettings: concentration: 1 μM, replicates: in singlicate; n = 1
Give the number; % is assumed, so skip it.

Cc1cc(-c2ccnc(Nc3cccc(C#N)c3)n2)cc(C)c1O [GSK1440913] = 0
O=C(Nc1c(F)cccc1F)c1cc(C(=O)c2ccccc2F)c[nH]1 [GSK1326180] = 18
Cc1ccc(NC(=O)c2ccc(Cl)c(Cl)c2)cc1-c1ccc(C(=O)Nc2ccncc2)cc1 [GSK1398460] = 19
Cc1cccc(Nc2nc(N[C@H]3CCCC[C@H]3N)ncc2C(N)=O)c1.Cl [GSK986310] = 0
Cn1cc(-c2ccc3c(c2)CCN3C(=O)Cc2cc(F)cc(F)c2F)c2c(N)ncnc21 [GSK2634140] = 21

Noted for COc1cc(Nc2nccc(N3CCC(NS(=O)(=O)c4ccc(NC(C)=O)cc4)CC3)n2)cc(OC)c1OC [GSK1379825] : its %Inh reads 0

Noted for O=C(Nc1n[nH]c2nc(-c3cccc(O)c3)ccc12)C1CC1 [SB-711805] : its %Inh reads 0

Noted for CC(C)NCC(Cc1ccccc1)NC(=O)c1cc(Br)c(-c2ccnc3[nH]ccc23)s1.Cl.Cl (stereo not shown) [GSK1383281] : its %Inh reads 4

Noted for N#CC1(c2cccc(C(=O)Nc3cccc(Oc4ccc5nc(NC(=O)C6CC6)sc5n4)c3)c2)CC1 : its %Inh reads 0

Noted for COC(=O)Nc1nc2ccc(Oc3ccc(CC(=O)Nc4cc(C(F)(F)F)ccc4F)cc3)cc2[nH]1 [GW680903] : its %Inh reads 0

Noted for Cl.Cl.NCC(NC(=O)c1cc(-c2cccnc2)c(-c2ccnc3[nH]ccc23)s1)c1ccccc1 (stereo not shown) [GSK1323434] : its %Inh reads 0

Noted for CN(c1ccc(F)c(NC(=O)c2cccc(OC(C)(C)C#N)c2Cl)c1)c1ccc2nc(NC(=O)C3CC3)sc2n1 : its %Inh reads 0

Noted for Cn1cc(-c2ccc3c(c2)CCN3C(=O)Cc2cc(F)cc(C(F)(F)F)c2)c2c(N)ncnc21 [GSK2635225] : its %Inh reads 30

Noted for CCn1c(-c2nonc2N)nc2c(-c3ccccc3)ncc(OCCCN)c21.O=C(O)C(F)(F)F.O=C(O)C(F)(F)F [GSK260205] : its %Inh reads 0

Noted for Cl.Cl.NC(CNC(=O)c1cc(Br)c(-c2ccnc3[nH]ccc23)s1)c1ccccc1 (stereo not shown) [GSK1322949] : its %Inh reads 0

Noted for CN1CCN(Cc2ccc(NC(=O)Nc3ccc(N(C)c4ccnc(Nc5ccc(CS(C)(=O)=O)cc5)n4)cc3)cc2)CC1.Cl [GW827654] : its %Inh reads 0
